test system: mice; experiment: Measurement of neurotoxicity (rotarod, Dunham and Miya); type: in vivo; settings: protective index
// reported PI (TD50/ED50 in MES) per item

Known results for compounds:
C[C@@H](OC(N)=O)[C@H](O)c1ccccc1Cl [Compound 2]
7.3
C[C@H](OC(N)=O)[C@@H](O)c1c(Cl)cccc1Cl [Compound 37]
5.1
CC(OC(N)=O)C(O)c1ccccc1Cl (racemic) [Compound 3]
12.0
C[C@H](OC(N)=O)[C@H](O)c1ccccc1Cl [Compound 5]
3.3

For the next question, use this compound.
Provide PI (TD50/ED50 in MES) value for the following compound: C[C@H](OC(N)=O)[C@@H](O)c1ccccc1Cl [Compound 1]
16.8
